# experimentalTarget: hAR (Homo sapiens, UniProt P10275)
# Sequence (P10275 whole entry): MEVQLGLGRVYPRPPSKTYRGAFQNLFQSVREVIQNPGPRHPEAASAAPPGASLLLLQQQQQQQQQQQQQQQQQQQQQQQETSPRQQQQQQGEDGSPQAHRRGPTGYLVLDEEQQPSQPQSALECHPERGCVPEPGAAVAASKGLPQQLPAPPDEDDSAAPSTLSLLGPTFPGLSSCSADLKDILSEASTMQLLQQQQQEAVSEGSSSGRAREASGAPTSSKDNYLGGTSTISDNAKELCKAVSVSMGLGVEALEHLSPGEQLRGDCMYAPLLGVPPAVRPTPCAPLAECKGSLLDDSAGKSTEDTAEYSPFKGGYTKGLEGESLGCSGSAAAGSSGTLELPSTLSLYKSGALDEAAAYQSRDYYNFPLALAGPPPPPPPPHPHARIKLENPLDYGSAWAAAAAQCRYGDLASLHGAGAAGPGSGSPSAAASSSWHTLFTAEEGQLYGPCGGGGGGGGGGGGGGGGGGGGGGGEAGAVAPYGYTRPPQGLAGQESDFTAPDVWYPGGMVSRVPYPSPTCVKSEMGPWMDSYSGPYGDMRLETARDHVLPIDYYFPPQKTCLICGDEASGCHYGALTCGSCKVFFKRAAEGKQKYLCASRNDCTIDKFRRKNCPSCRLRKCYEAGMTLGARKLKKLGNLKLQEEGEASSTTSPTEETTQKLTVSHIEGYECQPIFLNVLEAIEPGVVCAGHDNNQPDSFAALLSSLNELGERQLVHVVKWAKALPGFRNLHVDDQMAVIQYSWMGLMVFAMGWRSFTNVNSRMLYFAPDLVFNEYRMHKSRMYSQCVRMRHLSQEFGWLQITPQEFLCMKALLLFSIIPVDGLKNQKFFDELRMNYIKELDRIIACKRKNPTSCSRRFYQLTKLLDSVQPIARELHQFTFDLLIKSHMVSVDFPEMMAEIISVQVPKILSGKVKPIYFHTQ
# assayProtocol: Cotransfection assay, AR antagonist
# statedConditions: read-out: AR Potency Antag
quantity: IC50 (nM)

compound | experimentalTarget | numericResult
CC1(C)OC(=O)Nc2ccc3c(c21)COc1c(F)cc(C=O)cc1-3 [Compound 24] | hAR (Homo sapiens, UniProt P10275) | 130

A. CC1(C)OC(=O)Nc2ccc3c(c21)COc1c(F)cc(Br)cc1-3 [Compound 20]
B. CC1(C)OC(=O)Nc2ccc3c(c21)COc1c(F)cccc1-3 [Compound 14]
C. CC1(C)OC(=O)Nc2ccc3c(c21)COc1c(F)cc(C#N)cc1-3 [Compound 26]
D. CC1(C)OC(=O)Nc2ccc3c(c21)COc1c(F)cc(C=NO)cc1-3 [Compound 25]
Descending sort on IC50 required. Put the labels in the requested order and list them out.
A, C, B, D

* * *

# experimentalTarget: human PR (Homo sapiens)
# assayProtocol: Cotransfection assay, PR agonist, CV-1 cells
# Type: cell-based
# statedConditions: CV-1 cells; Table 1; read-out: PR Agonist CV-1 Cells Potency
quantity: EC50 (nM)

lineNotation | numericResult
CC1(C)OC(=O)Nc2ccc3c(c21)COc1c(F)cc(C=NO)cc1-3 | 623

1. CC1(C)OC(=O)Nc2ccc3c(c21)COc1c(F)cc(Br)cc1-3
2. CC1(C)OC(=O)Nc2ccc3c(c21)COc1c(F)cccc1-3
3. CC1(C)OC(=O)Nc2ccc3c(c21)COc1c(F)cc(C#N)cc1-3
Sequence the entries by EC50, beginning with the highest number. Returns: the labels arranged in the requested order.
2, 3, 1
(2: 2500 nM, 3: 1000 nM, 1: 500 nM)

* * *

# experimentalTarget: hPR-A (Homo sapiens, UniProt P06401)
# Sequence (P06401 1-769 isoform P06401-2): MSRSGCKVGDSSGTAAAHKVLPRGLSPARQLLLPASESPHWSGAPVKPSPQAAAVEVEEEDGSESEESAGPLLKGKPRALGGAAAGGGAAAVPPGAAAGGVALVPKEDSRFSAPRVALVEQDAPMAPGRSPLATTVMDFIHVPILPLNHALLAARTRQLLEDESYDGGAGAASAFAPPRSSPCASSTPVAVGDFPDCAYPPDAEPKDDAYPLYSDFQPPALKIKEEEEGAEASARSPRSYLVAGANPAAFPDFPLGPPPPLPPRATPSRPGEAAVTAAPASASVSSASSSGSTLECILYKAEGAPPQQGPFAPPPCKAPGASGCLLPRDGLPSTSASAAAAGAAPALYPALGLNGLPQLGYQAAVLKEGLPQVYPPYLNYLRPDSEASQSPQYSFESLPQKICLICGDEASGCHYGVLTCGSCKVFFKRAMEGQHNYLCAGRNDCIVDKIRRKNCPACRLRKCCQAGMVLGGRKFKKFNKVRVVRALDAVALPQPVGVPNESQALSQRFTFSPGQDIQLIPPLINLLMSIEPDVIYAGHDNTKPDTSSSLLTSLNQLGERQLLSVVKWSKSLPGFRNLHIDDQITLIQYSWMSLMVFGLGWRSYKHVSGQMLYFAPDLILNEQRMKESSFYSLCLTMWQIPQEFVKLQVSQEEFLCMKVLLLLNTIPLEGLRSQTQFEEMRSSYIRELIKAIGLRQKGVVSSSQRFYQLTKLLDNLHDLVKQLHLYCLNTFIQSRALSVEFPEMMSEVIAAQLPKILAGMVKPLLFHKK
pKi: −log10 of the molar value.
quantity: pKi

lineNotation | pKi
CC1(C)OC(=O)Nc2ccc3c(c21)COc1c(F)cc(C=O)cc1-3 | 6.74

P. CC1(C)OC(=O)Nc2ccc3c(c21)COc1c(F)cccc1-3
Q. CC1(C)OC(=O)Nc2ccc3c(c21)COc1c(F)cc(C=NO)cc1-3
For this pair, P and Q , which shows a numerically higher pKi? Answer with the label corresponding to your selection.
Q
(Q: 7.19, P: 6.76)

* * *

Documented IC50 across a set of molecules
# experimentalTarget: UniProtKB P04150
# Sequence (P04150 whole entry): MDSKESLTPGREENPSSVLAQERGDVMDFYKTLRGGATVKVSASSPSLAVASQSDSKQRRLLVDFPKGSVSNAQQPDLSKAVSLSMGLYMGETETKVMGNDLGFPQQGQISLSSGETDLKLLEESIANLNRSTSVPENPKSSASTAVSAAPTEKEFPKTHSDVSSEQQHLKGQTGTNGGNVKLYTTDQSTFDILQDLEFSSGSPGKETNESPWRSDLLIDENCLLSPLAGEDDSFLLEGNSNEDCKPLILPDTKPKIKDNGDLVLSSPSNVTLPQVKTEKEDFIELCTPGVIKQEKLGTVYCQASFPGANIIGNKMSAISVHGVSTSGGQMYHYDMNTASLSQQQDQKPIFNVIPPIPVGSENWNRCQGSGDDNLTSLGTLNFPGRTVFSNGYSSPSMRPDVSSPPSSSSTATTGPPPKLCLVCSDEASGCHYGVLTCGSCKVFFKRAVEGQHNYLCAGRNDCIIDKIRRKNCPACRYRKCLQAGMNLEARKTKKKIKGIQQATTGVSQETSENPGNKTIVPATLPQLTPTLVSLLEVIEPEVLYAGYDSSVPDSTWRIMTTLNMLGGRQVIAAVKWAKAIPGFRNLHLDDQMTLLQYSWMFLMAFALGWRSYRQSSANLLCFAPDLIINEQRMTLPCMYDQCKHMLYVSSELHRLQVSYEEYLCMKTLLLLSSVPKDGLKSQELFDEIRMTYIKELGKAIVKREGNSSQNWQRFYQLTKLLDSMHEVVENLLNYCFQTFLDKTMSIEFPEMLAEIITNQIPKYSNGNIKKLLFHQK
# assayProtocol: Cotransfection assay, GR antagonist
# statedConditions: read-out: GR Potency Antag

molecule | IC50
CC1(C)OC(=O)Nc2ccc3c(c21)COc1c(F)cccc1-3 | > 10 µM
CC1(C)OC(=O)Nc2ccc3c(c21)COc1c(F)cc(Br)cc1-3 | > 10 µM
CC1(C)OC(=O)Nc2ccc3c(c21)COc1c(F)cc(C=NO)cc1-3 | > 10 µM
CC1(C)OC(=O)Nc2ccc3c(c21)COc1c(F)cc(C#N)cc1-3 | > 10 µM
CC1(C)OC(=O)Nc2ccc3c(c21)COc1c(F)cc(C=O)cc1-3 | > 10 µM

Here is another molecule to look at.
response.value for CC(=O)S[C@@H]1CC2=CC(=O)CC[C@]2(C)[C@H]2CC[C@@]3(C)[C@@H](CC[C@@]34CCC(=O)O4)[C@H]12 [Spir, reference compound] (field: IC50) = 2 µM

* * *

# experimentalTarget: human PR (Homo sapiens)
# assayProtocol: Cotransfection assay, PR antagonist, CV-1 cells
# statedConditions: Table 1, read-out: PR Antagonist CV-1 Cells Potency
pIC50: −log10 of the molar value.
quantity: pIC50

Observe how each entry below is paired with its result.
lineNotation | experimentalTarget | pIC50
CC1(C)OC(=O)Nc2ccc3c(c21)COc1c(F)cc(C=O)cc1-3 | human PR (Homo sapiens) | 7.01
CC1(C)OC(=O)Nc2ccc3c(c21)COc1c(F)cc(Br)cc1-3 | human PR (Homo sapiens) | 7.70
CC1(C)OC(=O)Nc2ccc3c(c21)COc1c(F)cc(C=NO)cc1-3 | human PR (Homo sapiens) | 7.64

1. CC1(C)OC(=O)Nc2ccc3c(c21)COc1c(F)cccc1-3
2. CC1(C)OC(=O)Nc2ccc3c(c21)COc1c(F)cc(C#N)cc1-3
When the recorded pIC50 values are compared, which is smaller: that of 1 or that of 2 ? Reply briefly: the label of your chosen item.
1
